procedure.details: ATG_ISRE_CIS: Attagene CIS-FACTORIAL HepG2 Assay for human Interferon Regulatory Factor 1 (IRF1) binding to an Interferon-Stimulated Response Element (ISRE) (AID 2282948)
run.conditions: HepG2 ISRE cis-reporter (Attagene), mRNA transcription readout; actives raise or lower the signal
Active and inactive are the calls of the source. The calls were made as follows: active = hit-call score of the fitted dose curve at least 0.9, where 1 is the maximum; inactive = score below 0.9.
property.name: AC50

Recorded AC50, per entry:
[
  {
    "molecule": "C=CC(F)(F)C(F)(F)C(F)(F)C(F)(F)C(F)(F)C(F)(F)C(F)(F)C(F)(F)F",
    "property.name": "AC50",
    "reported.measurement": "inactive"
  },
  {
    "molecule": "CC(C)OC(=O)c1ccccc1C(=O)OC(C)C",
    "property.name": "AC50",
    "reported.measurement": "inactive"
  },
  {
    "molecule": "O=P(O)(O)OCCC(F)(F)C(F)(F)C(F)(F)C(F)(F)C(F)(F)C(F)(F)F",
    "property.name": "AC50",
    "reported.measurement": "inactive"
  },
  {
    "molecule": "C1COCCN1",
    "property.name": "AC50",
    "reported.measurement": "inactive"
  },
  {
    "molecule": "CC(Cc1ccc(O)c(O)c1)C(C)Cc1ccc(O)c(O)c1 (stereo not given)",
    "property.name": "AC50",
    "reported.measurement": "inactive"
  },
  {
    "molecule": "O=C(O)C(F)(OC(F)(F)C(F)(OC(F)(F)C(F)(OC(F)(F)C(F)(F)C(F)(F)F)C(F)(F)F)C(F)(F)F)C(F)(F)F (stereo not given)",
    "property.name": "AC50",
    "reported.measurement": "inactive"
  },
  {
    "molecule": "O=C(O)C(F)(F)C(F)(F)C(F)F",
    "property.name": "AC50",
    "reported.measurement": "inactive"
  },
  {
    "molecule": "O=C(O)C(F)(F)C(F)(F)C(F)(F)C(F)(F)C(F)(F)C(F)(F)C(F)(F)C(F)(F)C(F)(F)C(F)F",
    "property.name": "AC50",
    "reported.measurement": "27.1 µM (active)"
  }
]

Look up AC50 for this molecule: `C=CC(=O)OCC(F)(F)C(F)(F)C(F)(F)C(F)(F)COC(=O)C=C`
61.4 µM (active)

Look up AC50 for this molecule: `FC(F)(Br)C(F)(F)C(F)(F)C(F)(F)C(F)(F)C(F)(F)Br`
inactive
